# EXPERIMENTAL PROTOCOL: Metabolic stability in human liver microsome; also: time not given here
# Format: ADME
# STUDY CONDITIONS: microsomes
Values of Stability greater than or equal to 90% map to 1; values below map to -1.

Example results:
>>> df
                                   compound  class_assignment
0  Cc1cc(C(=O)NC2CCCCC2)c2c(c1C(OC(C)(C)C)C(=O)O)[C@]1(CC2)CC[C@@H](C)CC1 (some centres undefined)                 1
1  Cc1cc(NC(=O)CC(C)C)c2c(c1C(OC(C)(C)C)C(=O)O)[C@]1(CC2)CC[C@@H](C)CC1 (some centres undefined)                -1
2  Cc1cc(C(=O)N(C)C)c2c(c1C(OC(C)(C)C)C(=O)O)[C@]1(CC2)CC[C@@H](C)CC1 (some centres undefined)                 1
3  Cc1cc(C(=O)NC2CCCCCC2)c2c(c1C(OC(C)(C)C)C(=O)O)[C@]1(CC2)CC[C@@H](C)CC1 (some centres undefined)                -1
4  CNC(=O)c1cc(C)c(C(OC(C)(C)C)C(=O)O)c2c1CC[C@]21CC[C@@H](C)CC1 (some centres undefined)                 1
5  Cc1ccc2c(c1C(OC(C)(C)C)C(=O)O)[C@]1(CC2)CC[C@@H](C)CC1 (mixture of isomers)                -1

API: the following record is the query input.
Determine whether this compound has Stability no lower than 90%: Cc1cc(C(=O)NC(C)C)c2c(c1C(OC(C)(C)C)C(=O)O)[C@]1(CC2)CC[C@@H](C)CC1 (some centres undefined) 1

###

# EXPERIMENTAL PROTOCOL: Permeability of the compound in human Caco-2 cells
# Format: ADME, cell-based
# STUDY CONDITIONS: read-out: permeability
Reported values of Papp for individual entries
Give the value, in units of ×10⁻⁶ cm/s, as a plain number.

>>> print(df.to_string())
                                   compound  recorded_number
0  Cc1cc(C(=O)NC(C)C)c2c(c1C(OC(C)(C)C)C(=O)O)[C@]1(CC2)CC[C@@H](C)CC1 (stereo not given in full)               13
1  Cc1cc(C(=O)NC2CCCCCC2)c2c(c1C(OC(C)(C)C)C(=O)O)[C@]1(CC2)CC[C@@H](C)CC1 (stereo not given in full)               30

Provide Papp value for the following compound: Cc1cc(C(=O)N(C)C)c2c(c1C(OC(C)(C)C)C(=O)O)[C@]1(CC2)CC[C@@H](C)CC1 (stereo not given in full) 7

Provide Papp value for the following compound: Cc1cc(C(=O)NC2CCCCC2)c2c(c1[C@@H](OC(C)(C)C)C(=O)O)[C@]1(CC2)CC[C@@H](C)CC1 20

Provide Papp value for the following compound: Cc1cc(C(=O)NC2CCCCC2)c2c(c1C(OC(C)(C)C)C(=O)O)[C@]1(CC2)CC[C@@H](C)CC1 (stereo not given in full) 24

Provide Papp value for the following compound: CNC(=O)c1cc(C)c(C(OC(C)(C)C)C(=O)O)c2c1CC[C@]21CC[C@@H](C)CC1 (stereo not given in full) 8

Provide Papp value for the following compound: Cc1cc(NC(=O)CC(C)C)c2c(c1C(OC(C)(C)C)C(=O)O)[C@]1(CC2)CC[C@@H](C)CC1 (stereo not given in full) 29

Provide Papp value for the following compound: Cc1ccc2c(c1C(OC(C)(C)C)C(=O)O)[C@]1(CC2)CC[C@@H](C)CC1 (mixture of isomers) 48

Provide Papp value for the following compound: Cc1cc(C(=O)NCC(C)C)c2c(c1C(OC(C)(C)C)C(=O)O)[C@]1(CC2)CC[C@@H](C)CC1 (stereo not given in full) 15

Provide Papp value for the following compound: Cc1cc(C(=O)NC2CCCCC2)c2c(c1[C@H](OC(C)(C)C)C(=O)O)[C@]1(CC2)CC[C@@H](C)CC1 20

###

# ASSAY SYSTEM: Human immunodeficiency virus type 1 integrase (Human immunodeficiency virus 1, UniProt Q7ZJM1)
# Sequence (Q7ZJM1 whole entry): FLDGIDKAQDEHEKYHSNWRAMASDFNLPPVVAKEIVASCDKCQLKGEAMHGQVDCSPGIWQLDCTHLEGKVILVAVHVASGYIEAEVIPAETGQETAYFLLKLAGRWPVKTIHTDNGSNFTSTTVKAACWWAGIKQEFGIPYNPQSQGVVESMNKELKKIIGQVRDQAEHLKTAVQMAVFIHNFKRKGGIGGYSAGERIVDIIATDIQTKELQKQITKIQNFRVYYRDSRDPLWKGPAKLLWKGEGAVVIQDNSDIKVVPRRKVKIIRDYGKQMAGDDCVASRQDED
# EXPERIMENTAL PROTOCOL: Allosteric inhibition of HIV-1 integrase by ELISA based IN-DNA assembly/Strand transfer assay
Classification by IC50 follows these ranges: lowest = under 6 nM, middle = from 6 nM up to 50 nM, highest = 50 nM and over

Example results:
>>> df
                                   compound  class_assignment
0  COC1C[C@]2(CC[C@@H](C)CC2)c2c1ccc(C)c2C(OC(C)(C)C)C(=O)O (stereo not given in full)           highest
1  Cc1ccc2c(c1C(OC(C)(C)C)C(=O)O)[C@]1(CC[C@H](C)CC1)CC2=O (stereo not given in full)           highest
2  Cc1cc(C(=O)NCC(C)C)c2c(c1C(OC(C)(C)C)C(=O)O)[C@]1(CC2)CC[C@@H](C)CC1 (stereo not given in full)            lowest
3  Cc1ccc2c(c1C(OC(C)(C)C)C(=O)O)[C@]1(CC2)CC[C@@H](C)CC1 (mixture of isomers)           highest
4  Cc1ccc(-c2c([C@H](OC(C)(C)C)C(=O)O)c(C)nc3ccccc23)cc1C            middle
5  Cc1cc(C(=O)NC2CCCCC2)c2c(c1C(OC(C)(C)C)C(=O)O)[C@]1(CC2)CC[C@@H](C)CC1 (stereo not given in full)            lowest
6  CNC(=O)c1cc(C)c(C(OC(C)(C)C)C(=O)O)c2c1CC[C@]21CC[C@@H](C)CC1 (stereo not given in full)           highest
7  Cc1cc(C(=O)N(C)C)c2c(c1C(OC(C)(C)C)C(=O)O)[C@]1(CC2)CC[C@@H](C)CC1 (stereo not given in full)           highest

Please classify: Cc1ccc2c(c1C(OC(C)(C)C)C(=O)O)[C@]1(CC[C@H](C)CC1)CC2O (stereo not given in full) highest

###

Reported values of Stability for individual entries
# EXPERIMENTAL PROTOCOL: Metabolic stability in rat liver microsome; also: time not given here
# Type: ADME
# STUDY CONDITIONS: microsomes
Give the value, in units of %, as a plain number.

In [3]: df
Out[3]:
                                   compound  recorded_number
0  Cc1cc(C(=O)NC(C)C)c2c(c1C(OC(C)(C)C)C(=O)O)[C@]1(CC2)CC[C@@H](C)CC1 (some centres undefined)               96

Provide Stability value for the following compound: Cc1cc(C(=O)N(C)C)c2c(c1C(OC(C)(C)C)C(=O)O)[C@]1(CC2)CC[C@@H](C)CC1 (some centres undefined) 94

Provide Stability value for the following compound: Cc1cc(C(=O)NC2CCCCC2)c2c(c1[C@H](OC(C)(C)C)C(=O)O)[C@]1(CC2)CC[C@@H](C)CC1 100

###

# EXPERIMENTAL PROTOCOL: Volume of distribution at steady state in rat at 0.3 mg/kg, iv
# Type: ADME, organism-based
# STUDY CONDITIONS: in vivo, read-out: Vdss
ATTRIBUTE MEASURED: Vd (L/kg)
Give the value, in units of L/kg, as a plain number.

Provide Vd value for the following compound: Cc1cc(C(=O)NC2CCCCC2)c2c(c1[C@H](OC(C)(C)C)C(=O)O)[C@]1(CC2)CC[C@@H](C)CC1 0.57

###

# EXPERIMENTAL PROTOCOL: Oral bioavailability in rat at 3 mg/kg
# Format: ADME, organism-based
# STUDY CONDITIONS: in vivo
ATTRIBUTE MEASURED: bioavailability (%)
Give the value, in units of %, as a plain number.

Provide bioavailability value for the following compound: Cc1cc(C(=O)NC2CCCCC2)c2c(c1[C@H](OC(C)(C)C)C(=O)O)[C@]1(CC2)CC[C@@H](C)CC1 64

###

# ASSAY SYSTEM: Human immunodeficiency virus type 1 integrase (Human immunodeficiency virus 1)
# EXPERIMENTAL PROTOCOL: Allosteric inhibition of HIV-1 integrase by ELISA based IN-DNA assembly/Strand transfer assay
Assign labels as follows, please: 1 for IC50 below 8 nM; -1 for IC50 equal to or exceeding 8 nM.

Example results:
In [3]: df
Out[3]:
                                   compound  class_assignment
0  Cc1ccc2c(c1C(OC(C)(C)C)C(=O)O)[C@]1(CCC2)CC[C@@H](C)CC1 (mixture of isomers)                -1
1  Cc1cc(C(=O)NC(C)C)c2c(c1C(OC(C)(C)C)C(=O)O)[C@]1(CC2)CC[C@@H](C)CC1 (stereo partly specified)                -1
2  Cc1cc(C(=O)NC2CCCCC2)c2c(c1[C@@H](OC(C)(C)C)C(=O)O)[C@]1(CC2)CC[C@@H](C)CC1                -1
3  Cc1cc(C(=O)NC2CCCCC2)c2c(c1[C@H](OC(C)(C)C)C(=O)O)[C@]1(CC2)CC[C@@H](C)CC1                 1
4  Cc1cc(NC(=O)CC(C)C)c2c(c1C(OC(C)(C)C)C(=O)O)[C@]1(CC2)CC[C@@H](C)CC1 (stereo partly specified)                 1

API: the following record is the query input.
Please indicate whether the reported IC50 of Cc1cc(C(=O)NC2CCCCCC2)c2c(c1C(OC(C)(C)C)C(=O)O)[C@]1(CC2)CC[C@@H](C)CC1 (stereo partly specified) is strictly below 8 nM. 1
